These entries and their values trace back to patent US4745124A.

target: angiotensin converting enzyme (human urinary ACE) (Homo sapiens, UniProt P12821); construct: ACE purified from human urine; from tissue; host or cells: human urine (ultrafiltration and Sephacryl S-200, first eluting peak; prepared as in Ryan et al., Tissue and Cell 10, 555 (1978)); assay: ACE activity assay, I50 (Example 216A); format: biochemical; conditions: human urinary ACE; Benzoyl-GlyHisLeu 1×10^-4 M; Hepes pH 8.0; 37° C; in vitro; read-out: I50
Sequence (P12821 30-1232 limits assumed): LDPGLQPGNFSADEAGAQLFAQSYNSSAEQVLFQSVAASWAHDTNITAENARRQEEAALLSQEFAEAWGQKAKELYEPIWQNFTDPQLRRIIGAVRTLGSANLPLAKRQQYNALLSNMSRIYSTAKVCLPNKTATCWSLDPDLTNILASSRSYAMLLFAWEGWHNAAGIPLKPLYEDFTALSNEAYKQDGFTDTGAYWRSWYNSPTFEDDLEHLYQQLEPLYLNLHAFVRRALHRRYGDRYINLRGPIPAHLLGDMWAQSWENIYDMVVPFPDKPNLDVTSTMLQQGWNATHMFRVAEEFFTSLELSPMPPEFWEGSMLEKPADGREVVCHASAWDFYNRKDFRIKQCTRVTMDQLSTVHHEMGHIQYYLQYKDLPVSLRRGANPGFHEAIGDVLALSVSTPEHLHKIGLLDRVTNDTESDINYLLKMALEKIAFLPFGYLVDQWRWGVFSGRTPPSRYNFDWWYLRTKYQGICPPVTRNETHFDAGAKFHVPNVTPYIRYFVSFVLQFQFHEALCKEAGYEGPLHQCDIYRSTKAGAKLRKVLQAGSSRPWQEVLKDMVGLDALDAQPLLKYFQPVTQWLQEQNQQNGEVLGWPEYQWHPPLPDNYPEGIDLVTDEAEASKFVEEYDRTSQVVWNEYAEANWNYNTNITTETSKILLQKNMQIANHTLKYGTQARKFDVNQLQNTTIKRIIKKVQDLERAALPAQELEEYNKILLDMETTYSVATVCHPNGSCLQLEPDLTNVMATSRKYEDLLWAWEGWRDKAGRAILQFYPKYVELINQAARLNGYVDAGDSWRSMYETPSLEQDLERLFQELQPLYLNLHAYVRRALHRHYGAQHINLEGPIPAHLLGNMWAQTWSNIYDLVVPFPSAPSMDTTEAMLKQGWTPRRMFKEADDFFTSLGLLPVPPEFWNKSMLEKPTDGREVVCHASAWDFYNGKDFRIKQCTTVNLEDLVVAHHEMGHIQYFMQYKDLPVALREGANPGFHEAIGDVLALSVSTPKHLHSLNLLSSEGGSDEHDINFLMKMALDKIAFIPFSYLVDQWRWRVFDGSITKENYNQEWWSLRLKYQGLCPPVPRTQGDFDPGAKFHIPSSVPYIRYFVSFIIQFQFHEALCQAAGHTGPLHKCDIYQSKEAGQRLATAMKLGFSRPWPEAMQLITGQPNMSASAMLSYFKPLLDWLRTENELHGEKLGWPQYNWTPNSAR
The following molecules are shown together with reported log10(IC50) values.
Would you kindly interpret these values as log10 of IC50 expressed in µM?

Use the examples below as a reference point.
Please look at this molecule and report its log10(IC50): O=C(N[C@@H](Cc1ccccc1)C(=O)O)c1ccccc1
2.60

Note down log10(IC50) recorded for O=C(O)[C@@H]1CCCN1
3.00

Name the recorded log10(IC50) of the item C[C@H](CSC(=O)[C@H](Cc1ccccc1)NC(=O)[C@H](CCCCN)NC(=O)C1CCCC1)C(=O)N1CCC[C@H]1C(=O)O in your answer.
-1.82

Quickly give me recorded log10(IC50) for C[C@H](CSC(=O)[C@H](Cc1ccccc1)NC(=O)c1ccccc1)C(=O)N1CCC[C@H]1C(=O)O
-1.80

Continuing:
Determine from records and report log10(IC50) for CC(SC(=O)C(Cc1ccccc1)NC(=O)c1ccccc1)C(=O)N1CC=C[C@H]1C(=O)O (some centres unmarked)
-2.52
